Tested on: MYO3A
Conditions: Compound Concentration (nM):1000;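 further: KINOMEscan scanMAX binding as percent activity remaining versus control; lower means stronger binding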
Measurement Name: Percent Control

| Compound | Percent Control |
| --- | --- |
| Nc1ncnc2occ(-c3ccc(NC(=O)Nc4cc(C(F)(F)F)ccc4F)cc3)c12 [GW770249X] | 9.7% |
| COc1cc(C=NNc2ncnc3c2cnn3-c2ccccc2)ccc1O [GW513184X] | 100% |
| Cl.O=C(O[C@H]1CN[C@H](C#Cc2cc3ncnc(Nc4ccc5c(cnn5Cc5ccccc5)c4)c3s2)C1)N1CCOCC1 [GSK200398A] | 100% |
| NS(=O)(=O)c1ccc(N/N=C2\C(=O)Nc3ccc(Cl)cc32)cc1 [GW280670X] | 100% |
| COc1cccc(-c2c[nH]c3c(N/N=C/c4ccncc4)ncnc23)c1 [GW814408X] | 100% |

Give MYO3A Percent Control for Cl.O=C(Nc1ccc(Oc2ccc3[nH]c(NC(=O)c4ccco4)nc3c2)cc1)Nc1cc(C(F)(F)F)ccc1F [GW683134A]
100%

Quick one: COc1cc2ncnc(Nc3ccc4c(cnn4Cc4ccccc4)c3)c2cc1OC.Cl [GW282449A]
100%

Then this compound: CN(C)CCNC(=O)Nc1ccc(N(C)c2ccnc(Nc3ccc(CS(C)(=O)=O)cc3)n2)cc1.Cl [GW830900A]
99%

====

System: GRK3
Construct: gene ADRBK2
Settings: Compound Concentration (nM):1000
Percent Control for assorted compounds
Give just the number in %; leave the unit off.

| Compound | Assay Target | Unit Symbol | Percent Control |
| --- | --- | --- | --- |
| COC(=O)Nc1nc2ccc(Oc3ccc(NC(=O)Nc4cc(C(F)(F)F)ccc4F)cc3)cc2s1.Cl [GW693917A] | GRK3 | % | 71 |

Reported Percent Control for COc1cc(/C=N/Nc2ncnc3[nH]ncc23)ccc1O [GW578748X] : what is it?
78

Next compound up: CCS(=O)(=O)c1ccc(OC)c(Nc2ncc(-c3cccc(OC)c3)o2)c1 [GW580509X]
100

====

Test system: PAK3
Conditions: Compound Concentration (nM):1000
Measured Percent Control accompanies every entry in the list below.
Answer shape: numeric part, then the unit.

Recorded Percent Control, per entry:
| Compound | Percent Control |
| --- | --- |
| COc1ccccc1-c1cc(/C=C2\C(=O)Nc3ncc(Br)cc32)cc(Br)c1O [GW442130X] | 67% |
| Cl.O=C(Nc1ccc(Oc2ccc3[nH]c(NC(=O)c4ccccc4)nc3c2)cc1)Nc1cc(C(F)(F)F)ccc1F [GW709042A] | 5.9% |
| C/C(Nc1ccc(S(N)(=O)=O)cc1)=C1/C(=O)Nc2ccccc21 [GW335962X] | 64% |
| CCn1c(-c2nonc2N)nc2c(C#CC(C)(C)O)nc(OCCNC)cc21.Cl | 100% |
| NS(=O)(=O)c1ccc(N/N=C2\C(=O)Nc3ccc(Cl)cc32)cc1 [GW280670X] | 100% |
| COc1ccc2c(-c3ccnc(Nc4cccc(OC(F)(F)F)c4)n3)cnn2n1 [GW810372X] | 100% |
| Cl.O=C(O[C@H]1CN[C@H](C#Cc2cc3ncnc(Nc4ccc5c(cnn5Cc5ccccc5)c4)c3s2)C1)N1CCOCC1 [GSK200398A] | 63% |
| COc1cc2ncnc(Nc3ccc4c(cnn4Cc4ccccc4)c3)c2cc1OC.Cl [GW282449A] | 30% |
| COc1ccc2[nH]c3c4[nH]c5ccc(OC)cc5c4c4c(c3c2c1)C(=O)NC4=O [GW296115X] | 4.2% |
| NS(=O)(=O)c1ccc(N/N=C2\C(=O)Nc3ccc(-c4cnco4)cc32)cc1 | 100% |

Provide value of Percent Control for this record tested with PAK3: COc1cc(N2CCN(C(C)C)CC2)ccc1Nc1nc(Nc2ccc(F)cc2C(=O)NC[C@@H](O)CO)c2cc[nH]c2n1 [GSK1392956A]
100%

Another compound to check: `COc1ccc2cc(-c3c(-c4ccncc4)nc(-c4ccc(S(C)(=O)=O)cc4C)n3C)ccc2c1`
12%

For CN(C)CCNC(=O)Nc1ccc(N(C)c2ccnc(Nc3ccc(CS(C)(=O)=O)cc3)n2)cc1.Cl [GW830900A] then?
2.1%

Param item: Nc1ncnc2occ(-c3ccc(NC(=O)Nc4cc(C(F)(F)F)ccc4F)cc3)c12 [GW770249X]
31%
